# Tested on: P388 leukemia ip, CD2F1 mice, survival T/C
# Protocol Notes: NCI In Vivo Anticancer Drug Screen. Data for tumor model P388 Leukemia (intraperitoneal) in CD2F1 (CDF1) mice
# Test Settings: endpoint: median survival time; dose: 240.0 mg/kg/injection; schedule: Q01DX005 (ip); vehicle: Klucel (hydroxypropylcellulose) (HPC); higher = longer survival
Toxic doses and inconclusive results are not listed.
Item-by-item account of T/C

Worked examples follow.
CC(=O)OC(OC(C)=O)c1cc(Cl)c(C(OC(C)=O)OC(C)=O)cc1Cl = 103 % of control
Cc1ccccc1C(C)(O)c1cnc(C)n1Cc1ccccc1 (stereo unspecified) = 91 % of control
S=C(N/N=C\c1c[nH]c2ccc(Br)cc12)NC12CC3CC(CC(C3)C1)C2 = 98 % of control
O=C1C(O)=C(O)C(=O)c2cc3c(cc21)OCO3 = 102 % of control
Cc1nc(C(=O)c2ccccc2)cnc1-c1ccccc1 = 91 % of control
OC(Cc1nc2ccccc2s1)c1ccco1 (stereo unspecified) = 103 % of control
CCC[CH2][Sn]([CH2]CCC)([S]CCS(=O)(=O)O)[S]CCS(=O)(=O)O = 99 % of control
O=C1C(Br)=C(c2ccccc2)S(=O)(=O)c2ccccc21 = 114 % of control
OCC1OC(ONc2ccccc2)C(O)C(O)C1O (stereo unspecified) = 100 % of control
Oc1ccc(C(c2cc3c(cc2O)OCO3)N2CCN(C(c3ccc(O)cc3)c3cc4c(cc3O)OCO4)CC2)cc1 (stereo unspecified) = 100 % of control

Turning to the following compound.
Observed T/C on P388 leukemia ip, CD2F1 mice, survival T/C, entry CCN(CC)C1=C/CC/C(c2ccccc2)=N/N=C\1c1ccccc1 , equals 97 % of control

Source of measurements: PubChem BioAssay AID330
